Quick list: human MASP2 IC50 per entry.
molecular target: recombinant human MASP2 active protease (amino acids 297-686, C-terminal His Tag) (human, UniProt O00187 297-686); experiment: cell-based or functional assay
Sequence (O00187 other isoform, or with tags, fused parts or gaps limits assumed): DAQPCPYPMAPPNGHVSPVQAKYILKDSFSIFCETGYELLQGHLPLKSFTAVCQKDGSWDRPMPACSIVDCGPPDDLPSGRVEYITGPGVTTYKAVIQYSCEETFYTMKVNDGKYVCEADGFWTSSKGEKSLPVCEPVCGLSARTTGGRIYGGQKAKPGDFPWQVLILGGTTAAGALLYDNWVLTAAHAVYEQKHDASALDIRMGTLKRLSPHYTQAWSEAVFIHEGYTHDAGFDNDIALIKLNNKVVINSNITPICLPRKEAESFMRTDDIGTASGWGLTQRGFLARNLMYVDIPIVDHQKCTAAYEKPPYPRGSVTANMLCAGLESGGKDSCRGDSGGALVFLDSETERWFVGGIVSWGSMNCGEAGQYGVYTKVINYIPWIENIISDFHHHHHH
Numbered stars: 1 amine (or outer) side, 2 acyl side, 3 side chain; on linkers, the order of the positions; unused ones are H or OH. Bridge positions count the residues as written; N and C are the ends. Square brackets hold non-standard residues; d marks the D form. Ends that are not written are not given here. * marks the point of attachment. X6 = (S)‑(1-Piperidin-3-yl)‑acetic acid, O=C(C[C@@H]1CCCN([*:1])C1)[*:2]; Oic = O=C(O)[C@@H]1C[C@@H]2CCCC[C@@H]2N1; tBuAla = CC(C)(C)C[C@H](N)C(=O)O; PEG5 = NCCOCCOCCOCCOCCOCCC(=O)O; Pen = CC(C)(S)[C@H](N)C(=O)O; Tranexamic = tranexamic acid; Me2Gly = CN(C)CC(=O)*; Sar = CNCC(=O)O
Give your result in nM as a bare value.

Here is how some binders turned out for human MASP2 IC50.
[
  {
    "binder": "ICSRSLP[Oic]I[Pen]IPE-OH (disulfide 2-10; N-terminus assumed; SMILES CC[C@H](C)[C@H](N)C(=O)N[C@H]1CSSC(C)(C)[C@@H](C(=O)N[C@H](C(=O)N2CCC[C@H]2C(=O)N[C@@H](CCC(=O)O)C(=O)O)[C@@H](C)CC)NC(=O)[C@H]([C@@H](C)CC)NC(=O)[C@@H]2C[C@@H]3CCCC[C@@H]3N2C(=O)[C@@H]2CCCN2C(=O)[C@H](CC(C)C)NC(=O)[C@H](CO)NC(=O)[C@H](CCCNC(=N)N)NC(=O)[C@H](CO)NC1=O) [Example 369: IC+SRSLP-(Oic)-I-(Pen)+IPE-OH]",
    "recorded-endpoint": "human MASP2 IC50",
    "units-label": "nM",
    "endpoint-result": 420
  },
  {
    "binder": "{Tetrahydro‑2H‑pyran‑3‑ylacetic acid}-ICSRSLP[Oic]I[Pen]IP-NH2 (disulfide 2-10) [Example 304: (Tetrahydro-2H-pyran-3-ylacetic acid)-IC+SRSLP-(Oic)-I-(Pen)+IP-NH2]",
    "recorded-endpoint": "human MASP2 IC50",
    "units-label": "nM",
    "endpoint-result": 27
  },
  {
    "binder": "[Tranexamic]ICSRS[tBuAla]PPI[Pen]IP[PEG5]-NH2 (disulfide 3-11) [Example 435: (Tranexamic)-IC+SRS-((tBu)A)-PPI-(Pen)+IP-(PEG4(19 atoms))-NH2]",
    "recorded-endpoint": "human MASP2 IC50",
    "units-label": "nM",
    "endpoint-result": 17
  },
  {
    "binder": "[Sar]ICSRSLP[(1R,3S,5R)‑2‑Azabicyclo(3.1.0)hexane‑3‑carboxylic acid]ICIPD-OH (disulfide 3-11) [Example 324: ((N-Me)G)-IC+SRSLP-((1R,3S,5R)-2-Azabicyclo[3.1.0]hexane-3-carboxylic acid)-IC+IPD-OH]",
    "recorded-endpoint": "human MASP2 IC50",
    "units-label": "nM",
    "endpoint-result": 72
  },
  {
    "binder": "[Sar]ICSRSLP[Oic]I[Pen]IP[X6]-OH (disulfide 3-11; N-terminus assumed; SMILES CC[C@H](C)[C@H](NC(=O)CNC)C(=O)N[C@H]1CSSC(C)(C)[C@@H](C(=O)N[C@H](C(=O)N2CCC[C@H]2C(=O)N2CCC[C@@H](CC(=O)O)C2)[C@@H](C)CC)NC(=O)[C@H]([C@@H](C)CC)NC(=O)[C@@H]2C[C@@H]3CCCC[C@@H]3N2C(=O)[C@@H]2CCCN2C(=O)[C@H](CC(C)C)NC(=O)[C@H](CO)NC(=O)[C@H](CCCNC(=N)N)NC(=O)[C@H](CO)NC1=O) [Example 451: ((N-Me)G)-IC+SRSLP-(Oic)-I-(Pen)+IP-((S)-(1-Piperidin-3-yl)-acetic acid)-OH]",
    "recorded-endpoint": "human MASP2 IC50",
    "units-label": "nM",
    "endpoint-result": 61
  }
]

Now consider the entry below.
Request: Consider the binder [Me2Gly]ICSRSLPPICIPD-NH2 (disulfide 3-11; SMILES CC[C@H](C)[C@H](NC(=O)CN(C)C)C(=O)N[C@H]1CSSC[C@@H](C(=O)N[C@H](C(=O)N2CCC[C@H]2C(=O)N[C@@H](CC(=O)O)C(N)=O)[C@@H](C)CC)NC(=O)[C@H]([C@@H](C)CC)NC(=O)[C@@H]2CCCN2C(=O)[C@@H]2CCCN2C(=O)[C@H](CC(C)C)NC(=O)[C@H](CO)NC(=O)[C@H](CCCNC(=N)N)NC(=O)[C@H](CO)NC1=O) [Example 350: ((N,N-diMe)G)-IC+SRSLPPIC+IPD-NH2] and give its recorded human MASP2 IC50.
Result: 370
